We begin with a simple list: items and their reported EC50.
target: COS-7/AMY3 (human calcitonin receptor (CTR) and RAMP3) (Homo sapiens, UniProt O60896+P30988); construct: expressed in transfected cells; host or cells: COS-7; assay: Amylin Receptor cAMP Assay II; format: cell-based; conditions: values marked **: Amylin Receptor cAMP Assay II; COS-7/AMY3 cells, cAMP dynamic 2 kit, 30 min; read-out: Amylin Receptor cAMP Stimulation Activity: EC50
Sequence (P30988 25-474): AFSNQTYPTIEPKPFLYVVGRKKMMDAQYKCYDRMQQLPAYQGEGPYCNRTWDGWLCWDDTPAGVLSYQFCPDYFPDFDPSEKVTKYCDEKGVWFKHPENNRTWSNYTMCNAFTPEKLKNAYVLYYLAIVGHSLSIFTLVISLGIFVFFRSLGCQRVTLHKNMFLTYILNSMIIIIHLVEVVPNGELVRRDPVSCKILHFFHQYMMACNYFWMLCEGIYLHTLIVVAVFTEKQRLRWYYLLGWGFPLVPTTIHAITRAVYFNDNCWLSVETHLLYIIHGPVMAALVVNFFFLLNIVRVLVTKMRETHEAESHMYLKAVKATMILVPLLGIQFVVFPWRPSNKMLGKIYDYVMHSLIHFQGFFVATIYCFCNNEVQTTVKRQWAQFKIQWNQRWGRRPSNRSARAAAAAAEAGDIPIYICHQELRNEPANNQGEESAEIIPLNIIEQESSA
Sequence (O60896 24-148): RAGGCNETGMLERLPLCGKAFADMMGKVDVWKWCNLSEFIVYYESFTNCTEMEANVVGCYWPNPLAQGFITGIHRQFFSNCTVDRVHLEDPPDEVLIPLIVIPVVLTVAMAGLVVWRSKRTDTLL
Just the number please, in nM, no unit attached.

Record excerpt, results attached:
>  <compound>
COc1c(F)ccc2c1CC[C@H]2Nc1nccc2cc(-c3c4c(nc(CCc5ccccc5Cl)c3-c3n[nH]c(=O)o3)C35CC(CN3C4=O)C5)sc12

>  <EC50 / nM>
0.517

$$$$
>  <compound>
COc1cccc2c1CC[C@H]2Nc1nccc2cc(-c3c4c(nc(CCC5CCCCC5)c3-c3n[nH]c(=O)o3)[C@@H]3CCCN3C4=O)sc12

>  <EC50 / nM>
51.1

$$$$

Looking up CC(c1ccc(F)c(F)c1)n1ccc2cc(-c3c4c(nc(CCC5CCOCC5)c3-c3cc(=O)[nH]o3)[C@@H]3CCCN3C4=O)ccc21 (stereo partly drawn) , I see its EC50 listed as 1750

###

target: COS-7/AMY3 (human calcitonin receptor (CTR) and RAMP3) (Homo sapiens, UniProt O60896+P30988); construct: expressed in transfected cells; host or cells: COS-7; experiment: Amylin Receptor cAMP Assay II; type: cell-based; conditions: values marked **: Amylin Receptor cAMP Assay II; COS-7/AMY3 cells, cAMP dynamic 2 kit, 30 min; read-out: Amylin Receptor cAMP Stimulation Activity: EC50
assayMetric: pEC50
pEC50 is a log-scale quantity: -log10 of the concentration expressed in molar.

Looking up COc1cccc2c1CC[C@H]2Nc1nccc2cc(-c3c4c(nc(CCC5CCOCC5)c3-c3cc(=O)[nH]o3)[C@@H]3CCCN3C4=O)sc12 , I see its pEC50 listed as 6.47

Looking up C[C@@H](Nc1nccc2cc(-c3c4c(nc(CCc5ccc(F)cc5)c3-c3noc(=O)[nH]3)[C@@H]3CCCN3C4=O)sc12)c1ccc(F)c(F)c1 , I see its pEC50 listed as 7.72

Looking up COc1c(F)ccc2c1CC[C@H]2Nc1nccc2cc(-c3c4c(nc(CCc5cccc(Cl)c5)c3-c3n[nH]c(=O)o3)C35CC(CN3C4=O)C5)sc12 , I see its pEC50 listed as 9.43

Looking up O=C1c2c(nc(CCC34CCC(CC3)OC4)c(-c3n[nH]c(=O)o3)c2-c2cnc3c(ccn3Cc3ncc(Cl)cc3F)c2)[C@@H]2CCCN12 , I see its pEC50 listed as 5.74

Looking up O=C1c2c(nc(CCC3CCOCC3)c(-c3cc(=O)[nH]o3)c2-c2cc3ccnc(N[C@@H]4CCc5ncccc54)c3s2)[C@@H]2CCCN12 , I see its pEC50 listed as 5.75

Looking up CN(Cc1ccc(F)c(F)c1)c1nccc2cc(-c3c4c(nc(CCc5ccc(F)cc5)c3-c3noc(=O)[nH]3)[C@@H]3CCCN3C4=O)sc12 , I see its pEC50 listed as 7.46

Looking up O=C1c2c(nc(CCc3ccc(F)cc3)c(-c3n[nH]c(=O)o3)c2-c2ccc3c(Cc4ccc(F)cc4F)nccc3c2)[C@@H]2CCCN12 , I see its pEC50 listed as 6.36

Looking up COc1c(F)ccc2c1CC(F)(F)[C@H]2Nc1nc(C)cc2cc(-c3c4c(nc(CCc5ccc(F)cc5)c3-c3n[nH]c(=O)o3)[C@@H]3CCCN3C4=O)sc12 , I see its pEC50 listed as 9.16

###

target: COS-7/AMY3 (human calcitonin receptor (CTR) and RAMP3) (Homo sapiens, UniProt O60896+P30988); construct: expressed in transfected cells; host or cells: COS-7; assay: Amylin Receptor cAMP Assay II; format: cell-based; settings: values marked **: Amylin Receptor cAMP Assay II; COS-7/AMY3 cells, cAMP dynamic 2 kit, 30 min; read-out: Amylin Receptor cAMP Stimulation Activity: EC50
assayMetric: pEC50
pEC50 is a log-scale quantity: -log10 of the concentration expressed in molar.

Record excerpt, results attached:
>  <compound>
CC(C)C1CS(=O)(=O)c2c1nc(CCC1CCOCC1)c(-c1cc(=O)[nH]o1)c2-c1ccc2c(ccn2Cc2ccc(C#N)c(F)c2)c1 (stereo not drawn)

>  <pEC50>
6.52

$$$$
>  <compound>
COc1c(F)ccc2c1CC[C@H]2Nc1nc(C)cc2cc(-c3c4c(nc(CCc5cccc(F)c5)c3-c3n[nH]c(=O)o3)C35CC(CN3C4=O)C5)sc12

>  <pEC50>
9.44

$$$$

In the following, a different compound is considered.
Looking up COc1c(F)ccc2c1C[C@H](F)[C@H]2Nc1nccc2cc(-c3c4c(nc(CCc5ccc(F)cc5)c3-c3n[nH]c(=O)o3)[C@@H]3CCCN3C4=O)sc12 , I see its pEC50 listed as 8.20

###

We begin with a simple list: items and their reported EC50.
biological target: COS-7/AMY3 (human calcitonin receptor (CTR) and RAMP3) (Homo sapiens, UniProt O60896+P30988); construct: expressed in transfected cells; host or cells: COS-7; test: Amylin Receptor cAMP Assay II; assay type: cell-based; conditions: values marked **: Amylin Receptor cAMP Assay II; COS-7/AMY3 cells, cAMP dynamic 2 kit, 30 min; read-out: Amylin Receptor cAMP Stimulation Activity: EC50
Just the number please, in nM, no unit attached.

Looking up COc1c(F)ccc2c1CC[C@H]2Nc1cccc2nc(-c3c4c(nc(CCc5ccc(F)cc5)c3-c3n[nH]c(=O)o3)C35CC(CN3C4=O)C5)sc12 , I see its EC50 listed as 14.6

Looking up COc1cccc2c1CC[C@H]2Nc1cc(C(F)(F)F)cn2cc(-c3c4c(nc(CCc5ccc(F)cc5)c3-c3n[nH]c(=O)o3)[C@@H]3CCCN3C4=O)nc12 , I see its EC50 listed as 1340

Looking up COc1cccc2c1CC(F)(F)[C@H]2Nc1nccc2cc(-c3c4c(nc(CCc5ccc(F)cc5)c3-c3n[nH]c(=O)o3)[C@@H]3CCCN3C4=O)sc12 , I see its EC50 listed as 1.96

Looking up COc1c(Cl)cc2c(c1F)CC[C@H]2Nc1nccc2cc(-c3c4c(nc(CCc5ccc(F)cc5)c3-c3n[nH]c(=O)o3)C35CC(CN3C4=O)C5)sc12 , I see its EC50 listed as 0.54

Looking up O=C1c2c(nc(CCC3CCOCC3)c(-c3cc(=O)[nH]o3)c2-c2ccc3c(ccn3Cc3ccc(F)c(F)c3)c2)[C@@H]2CCCN12 , I see its EC50 listed as 1370

Looking up O=C1c2c(nc(CCc3ccc(F)cc3)c(-c3n[nH]c(=O)o3)c2-c2cc3ccnc(N[C@@H]4CCc5nc(C(F)(F)F)ccc54)c3s2)[C@@H]2CCCN12 , I see its EC50 listed as 2410

###

target: COS-7/AMY3 (human calcitonin receptor (CTR) and RAMP3) (Homo sapiens, UniProt O60896+P30988); construct: expressed in transfected cells; host or cells: COS-7; assay: Amylin Receptor cAMP Assay II; format: cell-based; details: values marked **: Amylin Receptor cAMP Assay II; COS-7/AMY3 cells, cAMP dynamic 2 kit, 30 min; read-out: Amylin Receptor cAMP Stimulation Activity: EC50
assayMetric: pEC50
pEC50 is a log-scale quantity: -log10 of the concentration expressed in molar.

Record excerpt, results attached:
>  <compound>
COc1cccc2c1CC[C@H]2Nc1nccc2cc(-c3c4c(nc(CCc5ccc(C6CC6)cc5)c3-c3noc(=O)[nH]3)[C@@H]3CCCN3C4=O)sc12

>  <experimentalResult>
6.84

$$$$
>  <compound>
O=C1c2c(nc(CCc3ccc(F)cc3)c(-c3noc(=O)[nH]3)c2-c2cc3ccnc(NCc4ccc(Cl)c(F)c4)c3s2)[C@@H]2CCCN12

>  <experimentalResult>
7.28

$$$$

Looking up COc1cccc2c1CC[C@H]2Nc1nccc2cc(-c3c(-c4n[nH]c(=O)o4)c(CCc4ccc(F)cc4)nc4c3S(=O)(=O)N3CCC[C@@H]43)sc12 , I see its pEC50 listed as 7.57

Looking up O=C1c2c(nc(CCc3ccc(F)cc3)c(-c3n[nH]c(=O)o3)c2-c2cnc3c(ccn3Cc3ncc(Cl)cc3F)c2)[C@@H]2CCCN12 , I see its pEC50 listed as 6.36

Looking up COc1cc(F)cc2c1CC[C@H]2Nc1nccc2cc(-c3c4c(nc(CCc5ccc(F)cc5)c3-c3n[nH]c(=O)o3)C35CC(CN3C4=O)C5)sc12 , I see its pEC50 listed as 9.25

Looking up CC(C)C1CS(=O)(=O)c2c1nc(CCC1CCOCC1)c(-c1n[nH]c(=O)o1)c2-c1cnc2c(ccn2Cc2ccc(C#N)c(F)c2)c1 (centres unmarked) , I see its pEC50 listed as 6.94
